Values were extracted from patent US20180185504A1.

tgt: T1, hPRLR.mmh (soluble monomeric human PRLR) (human)
T1 construct: called soluble monomeric PRLR protein
T1 chain: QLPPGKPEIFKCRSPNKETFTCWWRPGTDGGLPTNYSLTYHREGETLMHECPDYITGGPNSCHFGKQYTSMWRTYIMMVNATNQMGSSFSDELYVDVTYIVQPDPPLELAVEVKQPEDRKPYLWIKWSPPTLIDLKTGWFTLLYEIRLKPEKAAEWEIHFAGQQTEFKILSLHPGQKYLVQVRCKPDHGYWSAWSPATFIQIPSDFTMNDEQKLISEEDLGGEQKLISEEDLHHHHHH
test_name: SPR Biacore, 25 C, mAb capture
The following ranges of kon define the classes used here: band A = under 300000 M⁻¹ s⁻¹, band B = from 300000 M⁻¹ s⁻¹ up to 700000 M⁻¹ s⁻¹, band C = 700000 M⁻¹ s⁻¹ and over

INSERT INTO measurements (binder, answer_label) VALUES
  ('H1H6797P (antibody, human IgG1, V domains shown, Human IgG1 Fc (H1H)) VH: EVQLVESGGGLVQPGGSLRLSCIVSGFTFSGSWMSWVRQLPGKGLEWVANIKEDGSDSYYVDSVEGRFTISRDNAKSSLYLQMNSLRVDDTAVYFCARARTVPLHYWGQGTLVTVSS VL: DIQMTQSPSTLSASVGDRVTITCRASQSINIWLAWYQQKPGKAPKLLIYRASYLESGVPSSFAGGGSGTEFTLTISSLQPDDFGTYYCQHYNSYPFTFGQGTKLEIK', 'band C'),
  ('H1H6781P (antibody, human IgG1, V domains shown, Human IgG1 Fc (H1H)) VH: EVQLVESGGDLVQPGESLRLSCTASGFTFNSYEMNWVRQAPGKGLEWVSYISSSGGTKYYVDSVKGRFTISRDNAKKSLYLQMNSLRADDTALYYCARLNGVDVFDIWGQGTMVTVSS VL: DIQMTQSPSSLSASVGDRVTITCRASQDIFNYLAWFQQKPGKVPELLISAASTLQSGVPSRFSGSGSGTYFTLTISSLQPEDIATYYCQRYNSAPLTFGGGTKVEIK', 'band A'),
  ('H1H6765P (antibody, human IgG1, V domains shown, Human IgG1 Fc (H1H)) VH: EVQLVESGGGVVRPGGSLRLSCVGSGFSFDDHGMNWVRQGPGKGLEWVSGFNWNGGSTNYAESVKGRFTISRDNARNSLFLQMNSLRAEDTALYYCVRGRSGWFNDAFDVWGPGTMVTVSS VL: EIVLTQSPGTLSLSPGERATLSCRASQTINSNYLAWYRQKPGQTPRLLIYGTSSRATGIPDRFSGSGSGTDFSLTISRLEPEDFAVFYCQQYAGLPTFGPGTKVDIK', 'band C'),
  ('H1H6976N (antibody, human IgG1, V domains shown, Tested with human IgG1 Fc (H1H); also called H2M6976N) VH: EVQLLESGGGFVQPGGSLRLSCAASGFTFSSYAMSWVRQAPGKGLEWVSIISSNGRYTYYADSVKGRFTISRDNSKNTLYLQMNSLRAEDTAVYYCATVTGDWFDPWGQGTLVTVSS VL: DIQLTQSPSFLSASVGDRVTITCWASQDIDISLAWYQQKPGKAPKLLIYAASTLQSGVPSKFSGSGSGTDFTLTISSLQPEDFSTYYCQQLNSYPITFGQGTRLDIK', 'band B'),
  ('H1H6792P (antibody, human IgG1, V domains shown, Human IgG1 Fc (H1H)) VH: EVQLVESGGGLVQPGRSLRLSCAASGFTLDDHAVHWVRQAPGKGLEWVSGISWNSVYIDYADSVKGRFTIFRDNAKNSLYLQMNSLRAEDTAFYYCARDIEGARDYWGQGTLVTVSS VL: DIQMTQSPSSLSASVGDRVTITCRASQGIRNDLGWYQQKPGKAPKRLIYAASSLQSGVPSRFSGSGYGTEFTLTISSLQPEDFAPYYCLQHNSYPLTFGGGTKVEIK', 'band B');

Task: Input H1H6795P (antibody, human IgG1, V domains shown, Human IgG1 Fc (H1H)) VH: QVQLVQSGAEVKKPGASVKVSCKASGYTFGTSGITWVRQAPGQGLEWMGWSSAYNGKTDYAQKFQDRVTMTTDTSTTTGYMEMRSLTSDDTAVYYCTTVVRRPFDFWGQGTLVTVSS VL: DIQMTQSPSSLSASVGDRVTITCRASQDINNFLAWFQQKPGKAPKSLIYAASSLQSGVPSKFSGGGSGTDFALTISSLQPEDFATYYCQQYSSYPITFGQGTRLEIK ; output its category
Result: band C

Task: Another binder: H1H6960N (antibody, human IgG1, V domains shown, Tested with human IgG1 Fc (H1H); also called H2M6960N) VH: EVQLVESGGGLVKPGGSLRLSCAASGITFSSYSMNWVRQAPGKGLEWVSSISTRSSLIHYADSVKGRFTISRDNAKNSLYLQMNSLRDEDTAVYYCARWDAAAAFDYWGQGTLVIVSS VL: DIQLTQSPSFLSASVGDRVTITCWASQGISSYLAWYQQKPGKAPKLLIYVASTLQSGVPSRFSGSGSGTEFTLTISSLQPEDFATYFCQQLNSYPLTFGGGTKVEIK
Result: band A

Task: Also need H1H6803P (antibody, human IgG1, V domains shown, Human IgG1 Fc (H1H)) VH: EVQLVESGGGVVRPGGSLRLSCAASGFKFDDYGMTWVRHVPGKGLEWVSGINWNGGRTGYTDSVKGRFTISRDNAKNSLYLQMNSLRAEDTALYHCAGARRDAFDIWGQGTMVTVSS VL: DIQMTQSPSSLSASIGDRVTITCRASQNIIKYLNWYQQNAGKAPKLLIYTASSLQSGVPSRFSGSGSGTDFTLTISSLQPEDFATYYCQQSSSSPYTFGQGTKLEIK , thanks.
Result: band A
